The measured values listed here are drawn from paper PMC2990348.

System: poliovirus (PV)
ASSAY DETAILS: in vitro
CONDITION INFO: human
PROPERTY NAME: selectivity ratio

Find the measured selectivity ratio: item Cc1ncnc2c1ccn2[C@@H]1O[C@H](CO)[C@@H](O)[C@H]1O , target or system poliovirus (PV).
> 100

====

ASSAY DETAILS: in vitro
CONDITION INFO: human
PROPERTY NAME: viability at 100 µM (%)
# value in %; strip the unit string

Given the entry Cc1ncnc2c1ccn2[C@@H]1O[C@H](CO)[C@@H](O)[C@H]1O , report its measured viability at 100 µM.
33
